FYI, the data here is from patent EP4786492A1.

- TEST_SYSTEM: human DLL3 protein expressed on CHO-K1 recombinant cells (human DLL3 extracellular segment fused to EpCAM transmembrane and intracellular regions) (human) (UniProt Q9NYJ7)
- Sequence (Q9NYJ7 other isoform, or with tags, fused parts or gaps limits assumed): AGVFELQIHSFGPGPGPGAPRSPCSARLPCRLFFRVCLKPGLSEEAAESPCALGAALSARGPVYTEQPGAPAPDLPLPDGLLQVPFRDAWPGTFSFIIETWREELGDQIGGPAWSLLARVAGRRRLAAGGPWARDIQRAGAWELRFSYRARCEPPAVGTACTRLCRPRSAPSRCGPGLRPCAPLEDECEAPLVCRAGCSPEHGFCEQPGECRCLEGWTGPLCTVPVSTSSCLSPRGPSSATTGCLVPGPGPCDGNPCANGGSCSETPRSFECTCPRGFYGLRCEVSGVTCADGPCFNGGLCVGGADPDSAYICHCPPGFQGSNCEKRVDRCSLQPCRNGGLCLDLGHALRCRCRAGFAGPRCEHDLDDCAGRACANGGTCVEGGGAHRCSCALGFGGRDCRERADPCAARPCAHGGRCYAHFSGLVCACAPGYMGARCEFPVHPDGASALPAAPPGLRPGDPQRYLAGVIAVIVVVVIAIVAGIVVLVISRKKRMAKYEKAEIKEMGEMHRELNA
- TEST_SUMMARY: FACS, CHO-K1 hDLL3 cells, 0.16 nM antibody
RECORDED_ENDPOINT: MFI (MFI)
Write the number in MFI without appending the unit.

- BINDER: "Hab015VL4VH1a-hFc (scFv, part only; not given: scFv linker and human IgG1 Fc, V domains shown, not shown: another chain or arm of the molecule; a dimerising Fc or GST; small tags and cut ends) VL: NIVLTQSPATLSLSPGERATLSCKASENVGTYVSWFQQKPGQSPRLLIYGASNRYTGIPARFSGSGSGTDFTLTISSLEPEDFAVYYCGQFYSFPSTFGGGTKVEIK VH: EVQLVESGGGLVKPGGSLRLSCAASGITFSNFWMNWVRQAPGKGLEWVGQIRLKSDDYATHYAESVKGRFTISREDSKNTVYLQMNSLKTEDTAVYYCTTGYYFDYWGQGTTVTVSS"
  MFI (MFI): 941

Field: next binder
IN: Field request: MFI | item: Hab015VL4VH1b-hFc (scFv, part only; not given: VL-VH linker and human IgG1 Fc, V domains shown, not shown: another chain or arm of the molecule; a dimerising Fc or GST; small tags and cut ends) VL: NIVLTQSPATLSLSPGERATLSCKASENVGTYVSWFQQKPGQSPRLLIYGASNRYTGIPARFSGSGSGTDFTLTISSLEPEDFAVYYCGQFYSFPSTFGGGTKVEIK VH: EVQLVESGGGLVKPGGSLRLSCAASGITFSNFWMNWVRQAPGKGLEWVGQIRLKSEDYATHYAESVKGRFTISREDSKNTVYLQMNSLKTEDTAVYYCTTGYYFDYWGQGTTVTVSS
OUT: 937
